These entries and their values trace back to the Immune Epitope Database (IEDB).

system tested: HLA-B*40:01
run description: IEDB peptide-MHC binding, purified MHC/competitive/fluorescence; filed as Kd, often an IC50 or EC50 that approximates it; bounds were set here for any values at or beyond the usual limits of such assays
measurement conditions: source organism: Brucella canis ATCC 23365
pKd: −log10 of the molar value.
endpoint name: pKd

Query string: Reported pKd for HLA-B*40:01, given `ETVWPFFYA` ?
Result string: ≤ 5.30

---

system tested: HLA-A*11:01
run description: IEDB peptide-MHC binding, purified MHC/direct/fluorescence; filed as Kd, often an IC50 or EC50 that approximates it; bounds were set here for any values at or beyond the usual limits of such assays
measurement conditions: source organism: Haemophilus influenzae
pKd: −log10 of the molar value.
endpoint name: pKd

Query string: Form field: reported pKd of `LIFPAFFLC`
Result string: ≤ 4.70

---

system tested: HLA-B*15:01
run description: IEDB peptide-MHC binding, purified MHC/direct/fluorescence; filed as Kd, often an IC50 or EC50 that approximates it; bounds were set here for any values at or beyond the usual limits of such assays
measurement conditions: source organism: Bacillus anthracis
endpoint name: Kd

Query string: Form field: reported Kd of `PRFGSCYFL`
Result string: ≥ 20 µM

---

system tested: HLA-B*15:01
run description: IEDB peptide-MHC binding, purified MHC/direct/fluorescence; filed as Kd, often an IC50 or EC50 that approximates it; bounds were set here for any values at or beyond the usual limits of such assays
measurement conditions: source organism: Variola virus
endpoint name: Kd (nM)
Answer format: numeric, nM implied, no suffix.

Query string: Form field: reported Kd of `SQEDNHFSL`
Result string: 2790

---

pKd reference
system tested: HLA-A*02:16
run description: IEDB peptide-MHC binding, purified MHC/competitive/fluorescence; filed as Kd, often an IC50 or EC50 that approximates it; bounds were set here for any values at or beyond the usual limits of such assays
measurement conditions: source organism: Entamoeba histolytica HM-1:IMSS
The value called pKd is obtained by taking minus log10 of the concentration in mol/L.

{"sequence code": "KVSVGSYFC", "pKd": 5.05}

Query string: Form field: reported pKd of `FHFNPLPNV`
Result string: 6.89

---

system tested: HLA-A*24:03
run description: IEDB peptide-MHC binding, purified MHC/direct/fluorescence; filed as Kd, often an IC50 or EC50 that approximates it; bounds were set here for any values at or beyond the usual limits of such assays
measurement conditions: source organism: Escherichia coli
endpoint name: Kd (nM)
Answer format: numeric, nM implied, no suffix.

Query string: Form field: reported Kd of `MYTRNLLWL`
Result string: 1.8

---

system tested: HLA-A*31:01
run description: IEDB peptide-MHC binding, purified MHC/competitive/fluorescence; filed as Kd, often an IC50 or EC50 that approximates it; bounds were set here for any values at or beyond the usual limits of such assays
measurement conditions: source organism: West Nile virus
endpoint name: Kd

Query string: Form field: reported Kd of `MVGVGSLVK`
Result string: ≥ 20 µM

---

system tested: HLA-A*26:01
run description: IEDB peptide-MHC binding, purified MHC/direct/fluorescence; filed as Kd, often an IC50 or EC50 that approximates it; bounds were set here for any values at or beyond the usual limits of such assays
measurement conditions: source organism: Corynebacterium efficiens
pKd: −log10 of the molar value.
endpoint name: pKd

Query string: Form field: reported pKd of `VQLQEYDTY`
Result string: ≤ 4.70

---

system tested: HLA-B*27:05
run description: IEDB peptide-MHC binding, purified MHC/direct/fluorescence; filed as Kd, often an IC50 or EC50 that approximates it; bounds were set here for any values at or beyond the usual limits of such assays
measurement conditions: source organism: Yersinia pestis
endpoint name: Kd

Query string: Form field: reported Kd of `LLIDDSFSS`
Result string: ≥ 20 µM

---

system tested: HLA-A*32:01
run description: IEDB peptide-MHC binding, purified MHC/competitive/radioactivity; filed as Kd, often an IC50 or EC50 that approximates it; bounds were set here for any values at or beyond the usual limits of such assays
measurement conditions: source organism: Dengue virus 2 Jamaica/1409/1983
endpoint name: Kd (nM)
Answer format: numeric, nM implied, no suffix.

{"sequence code": "AAAWYLWEVK", "reading unit": "nM", "Kd": 2060}

Now for another entry.
Query string: Reported Kd for HLA-A*32:01, given `RVPNYNLII` ?
Result string: 148

---

system tested: HLA-B*15:17
run description: IEDB peptide-MHC binding, purified MHC/direct/fluorescence; filed as Kd, often an IC50 or EC50 that approximates it; bounds were set here for any values at or beyond the usual limits of such assays
measurement conditions: source organism: Mycobacterium tuberculosis
endpoint name: Kd

{"sequence code": "KLVGIELPK", "value reported": "≥ 20 µM"}

Now for another entry.
Query string: Form field: reported Kd of `SPREECGVF`
Result string: ≥ 20 µM

---

system tested: HLA-B*58:01
run description: IEDB peptide-MHC binding, purified MHC/direct/fluorescence; filed as Kd, often an IC50 or EC50 that approximates it; bounds were set here for any values at or beyond the usual limits of such assays
measurement conditions: source organism: Campylobacter jejuni RM1221
pKd: −log10 of the molar value.
endpoint name: pKd

Query string: Form field: reported pKd of `KNDAVYIGY`
Result string: ≤ 4.70

---

system tested: HLA-A*03:01
run description: IEDB peptide-MHC binding, purified MHC/competitive/fluorescence; bounds were set here for any values at or beyond the usual limits of such assays
measurement conditions: source organism: Vaccinia virus
endpoint name: IC50 (nM)
Answer format: numeric, nM implied, no suffix.

Query string: Form field: reported IC50 of `LLFGIKCIK`
Result string: 770

---

system tested: HLA-A*01:01
run description: IEDB peptide-MHC binding, purified MHC/competitive/radioactivity; filed as Kd, often an IC50 or EC50 that approximates it; bounds were set here for any values at or beyond the usual limits of such assays
measurement conditions: source organism: Mammarenavirus whitewaterense
endpoint name: Kd

Query string: Form field: reported Kd of `KYPNLNDLK`
Result string: ≥ 41 µM

---

system tested: HLA-A*03:01
run description: IEDB peptide-MHC binding, purified MHC/direct/fluorescence; filed as Kd, often an IC50 or EC50 that approximates it; bounds were set here for any values at or beyond the usual limits of such assays
measurement conditions: source organism: Campylobacter jejuni RM1221
endpoint name: Kd

Query string: Form field: reported Kd of `KNDAVYIGY`
Result string: ≥ 20 µM

---

system tested: HLA-A*31:01
run description: IEDB peptide-MHC binding, purified MHC/direct/fluorescence; filed as Kd, often an IC50 or EC50 that approximates it; bounds were set here for any values at or beyond the usual limits of such assays
measurement conditions: source organism: Vibrio cholerae
endpoint name: Kd

Query string: Form field: reported Kd of `EGIEGRIAY`
Result string: ≥ 20 µM

---

system tested: HLA-A*03:01
run description: IEDB peptide-MHC binding, purified MHC/competitive/fluorescence; filed as Kd, often an IC50 or EC50 that approximates it; bounds were set here for any values at or beyond the usual limits of such assays
measurement conditions: source organism: Giardia lamblia ATCC 50803
endpoint name: Kd

Query string: Form field: reported Kd of `TMNSRYYLV`
Result string: ≥ 20 µM

---

system tested: HLA-A*26:01
run description: IEDB peptide-MHC binding, purified MHC/competitive/radioactivity; filed as Kd, often an IC50 or EC50 that approximates it; bounds were set here for any values at or beyond the usual limits of such assays
measurement conditions: source organism: Dengue virus 1 Singapore/S275/1990
endpoint name: Kd (µM)
Answer format: numeric, µM implied, no suffix.

Query string: Form field: reported Kd of `ESEMIIPKIY`
Result string: 19.9

---

system tested: HLA-A*24:02
run description: IEDB peptide-MHC binding, purified MHC/competitive/radioactivity; filed as Kd, often an IC50 or EC50 that approximates it; bounds were set here for any values at or beyond the usual limits of such assays
measurement conditions: source organism: Dengue virus 3 Martinique/1243/1999
pKd: −log10 of the molar value.
# binarize pKd: threshold 6 inclusive, high side T, low side F

Query string: For this sequence, is measured pKd 6 or higher? `VYTQLCDHRL`
Result string: T

Query string: For this sequence, is measured pKd 6 or higher? `EYQKTKLNDW`
Result string: F

Query string: For this sequence, is measured pKd 6 or higher? `TWPKSHTLW`
Result string: T

Query string: For this sequence, is measured pKd 6 or higher? `GWHDWQQVPF`
Result string: T

---

system tested: HLA-A*26:01
run description: IEDB peptide-MHC binding, purified MHC/competitive/fluorescence; filed as Kd, often an IC50 or EC50 that approximates it; bounds were set here for any values at or beyond the usual limits of such assays
measurement conditions: source organism: Orthohantavirus puumalaense
endpoint name: Kd

Query string: Reported Kd for HLA-A*26:01, given `LRYGNVLDV` ?
Result string: ≥ 20 µM
